The origin of these recorded values is patent US20110039770A1.

What relative binding capacity was measured for each of the following?
# Target: T1, PKC-ε, purified isoform (UniProt Q02156 1-737)
# T1 construct: also called PKC-epsilon; epsilon
# T1 sequence (looked up): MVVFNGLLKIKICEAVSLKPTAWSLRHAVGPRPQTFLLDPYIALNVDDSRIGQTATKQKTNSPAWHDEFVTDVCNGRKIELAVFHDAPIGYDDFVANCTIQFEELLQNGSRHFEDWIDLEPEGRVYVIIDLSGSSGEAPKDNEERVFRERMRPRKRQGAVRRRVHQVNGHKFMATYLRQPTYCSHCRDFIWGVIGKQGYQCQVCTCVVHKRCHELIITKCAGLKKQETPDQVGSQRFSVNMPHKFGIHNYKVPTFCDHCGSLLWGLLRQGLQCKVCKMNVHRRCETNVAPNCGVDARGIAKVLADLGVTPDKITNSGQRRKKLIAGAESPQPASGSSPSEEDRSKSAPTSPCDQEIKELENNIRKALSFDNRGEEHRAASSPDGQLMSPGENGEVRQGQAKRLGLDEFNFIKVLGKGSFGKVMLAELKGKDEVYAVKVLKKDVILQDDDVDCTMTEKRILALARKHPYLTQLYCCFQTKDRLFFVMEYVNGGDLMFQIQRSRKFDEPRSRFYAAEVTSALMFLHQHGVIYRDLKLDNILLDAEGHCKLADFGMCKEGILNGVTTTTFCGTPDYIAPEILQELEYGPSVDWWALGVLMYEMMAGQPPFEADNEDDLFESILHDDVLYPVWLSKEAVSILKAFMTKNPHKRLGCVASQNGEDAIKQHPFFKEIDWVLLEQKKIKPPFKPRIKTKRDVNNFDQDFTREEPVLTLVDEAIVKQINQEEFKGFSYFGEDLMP
# Protocol: competition ELISA on coated purified PKC-ε vs anti-PKC ε antibody; PRE 100 µM
Kindly provide the numeric value in % only, without the unit symbol.

Request: relative binding capacity for Ac-ISIGILQNADK-NH2 (also called peptide recognition element 7) [PRE 7] ?
Result: 14

Request: Given the entry Ac-RDAQNLI-NH2 (Ac-RDAQNLI-NH2; also called peptide recognition element 13) [PRE 13] , report its measured relative binding capacity.
Result: 0

Request: Entry under review: Ac-RDAQNLIGISI-NH2 (also called peptide recognition element 11) [PRE 11] . Reported relative binding capacity?
Result: 13

Request: I would be grateful if you could share the reported relative binding capacity for Ac-KDAQNLI-NH2 (Ac-KDAQNLI-NH2; also called peptide recognition element 12) [PRE 12] .
Result: 0.28

Request: Given Ac-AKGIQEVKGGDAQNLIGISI-NH2 (also called peptide recognition element 3) [PRE 3] , state its recorded relative binding capacity.
Result: 31.5
